# System: T-47D breast
# assay overview: NCI-60 one-dose screen, 48 h
# experimental parameters: 10 µM unless noted
This is part of a sample that, as a whole, favours compounds with a hit. Of some 83,000 tested, about 20% had one in any assay. Calls of active or inactive are those of the source. The calls were made as follows: active = growth percent below 10; inactive = the rest.
Field 'call' accepts 1 = active, 0 = inactive

Problem: Hello, I am checking results. What call was entered for COc1ccc(/C=C/c2nc3ccccc3nc2/C=C/c2ccc(OC)cc2)cc1 ?
Result: 0

Problem: Same thing, different compound: CN1CCN(c2ccc(Nc3c4ccccc4nc4ccccc34)cc2)CC1
Result: 0

Problem: Same thing, different compound: CCC([N+](=O)[O-])S(=O)(=O)c1ccc(C)cc1 (centres undefined)
Result: 0

Problem: Same thing, different compound: Cc1cc(N2CCCCC2)nc(NC2CCCC(Nc3ccnc4cc(Cl)ccc34)C2)n1 (centres undefined)
Result: 1

Problem: Same thing, different compound: O=S(=O)(Nc1ccc(NS(=O)(=O)c2ccccc2)c(Cl)c1)c1ccccc1
Result: 0

Problem: Same thing, different compound: O=C(O)c1ccc(N=CC(=O)c2ccc(-c3ccccc3)cc2)cc1
Result: 0

Problem: Same thing, different compound: Cc1ccc2oc(=O)cc(C3c4ccc([nH]4)C(c4cc(=O)oc5ccc(C)cc45)c4ccc([nH]4)C(c4cc(=O)oc5ccc(C)cc45)c4ccc([nH]4)C(c4cc(=O)oc5ccc(C)cc45)c4ccc3[nH]4)c2c1 (centres undefined)
Result: 1

Problem: Same thing, different compound: CSc1nc(NCc2ccccc2)c(C#N)c(-c2cccc([N+](=O)[O-])c2)n1
Result: 0

Problem: Same thing, different compound: C=CCSSC1N=CNc2nc[nH]c21 (centres undefined)
Result: 0

###

# System: HOP-92 NSCLC
# assay overview: NCI-60 one-dose screen, 48 h (100 = growth as untreated, 0 = no growth, -100 = all killed)
# experimental parameters: 10 µM unless noted
About 83,000 compounds went through this panel and 20% of them were active in at least one assay; those are over-represented in the sample as a whole.
# reported growth; entries follow
Unit % implied. Number only.

1. O=C1NC(=Nc2ccc(O)cc2)S/C1=C\c1cccc(Cl)c1 = 72.5

Problem: State the recorded growth for this entry: Cc1cc(N2CCOCC2)nc(NCc2cc(Nc3ccnc4cc(Cl)ccc34)ccc2F)n1
Result: -30.8

Problem: Same thing, different compound: O=C1/C(=C/c2cn(-c3ccccc3)nc2-c2ccccc2)SC(=S)N1CCc1ccccc1
Result: 122

###

# reported growth; entries follow
# Tested on: A549/ATCC NSCLC
# assay overview: NCI-60 one-dose screen, 48 h (100 = growth as untreated, 0 = no growth, -100 = all killed)
# experimental parameters: 10 µM unless noted
The panel holds about 83,000 compounds, 20% with a hit somewhere; the sample as a whole holds those more often.
Unit % implied. Number only.

1. CCOC(=O)C(C)(C#N)C1C=CCCC1 (stereo unspecified) = 92.5

Problem: State the recorded growth for this entry: Cn1cccc1-c1nc2c3c(ccc2[nH]1)C(=O)c1ccccc1C3=O
Result: 87.9

Problem: Same thing, different compound: C=C1c2nc3ccccc3n2C=C(c2cccc(Cl)c2)N1Cc1ccc(OC)cc1
Result: 14.3

Problem: Same thing, different compound: O=C1c2ccccc2C(=O)c2c(N=Nc3[nH]c(=S)[nH]c3O)cccc21
Result: 24.3

Problem: Same thing, different compound: CC[C@]1(O)C[C@@H]2CN(CCc3c([nH]c4ccccc34)[C@@](C(=O)OC)(c3cc4c(cc3OC)N(C)[C@H]3[C@@](O)(C(N)=O)[C@H](O)[C@]5(CC)[C@@H]6C[C@@H]6CN6CC[C@]43[C@@H]65)C2)C1
Result: 12.7

Problem: Same thing, different compound: CN(C)CCCNc1c2ccccc2nc2ccccc12
Result: 96.2

###

# Tested on: MDA-MB-435 melanoma
# assay overview: NCI-60 one-dose screen, 48 h
# experimental parameters: 10 µM unless noted
Compounds without any hit were thinned out: in the full panel of roughly 83,000, 20% have a hit. Active and inactive are the calls of the source. The calls were made as follows: active = growth percent below 10; inactive = the rest.
Field 'call' accepts yes (active), no (inactive)

Worked set:
1. O=C(N(c1ccccc1)c1ccccc1)n1ccc2nc(Cl)nc(Cl)c21 = no
2. Cc1ccc(C(SCC(N)C(=O)O)(c2ccccc2)c2ccc(C)cc2)cc1 (configuration not stated) = yes
3. Cc1nc2c3c(-c4ccccc4)c(-c4ccccc4)oc3ncn2n1 = no
4. C#CCOc1ccc2ncnc(N3CCC(NC(=O)CCl)CC3)c2c1 = no
5. COc1ccc(-c2nc3ccc(-c4nc5ccc(N6CCN(C)CC6)cc5[nH]4)cc3[nH]2)cc1OC = no
6. C#CC(F)(F)[C@]1(O)CC[C@H]2[C@@H]3CCC4=CC(=O)CCC4=C3[C@@H](c3ccc(C(C)=O)cc3)C[C@@]21C = no

Problem: Hello, I am checking results. What call was entered for CN1CCN(CCCOc2cccc3nc(Nc4ccc(Cl)c(F)c4)ccc23)CC1 ?
Result: no

Problem: Same thing, different molecule: COc1cc2c(cc1-c1c(C)noc1C)ncc1nc(C3CCC(F)(F)CC3)n([C@H](C)COC(F)F)c12
Result: no

Problem: Same thing, different molecule: O=C1c2c(O)cc(O)cc2-c2c(-c3ccc(O)cc3)oc3cc(O)cc1c23
Result: no

Problem: Same thing, different molecule: CCCCC(=O)OCC1OC(n2cnc3c(=S)nc[nH]c32)C(OC(=O)CCCC)C1OC(=O)CCCC (configuration not stated)
Result: no

Problem: Same thing, different molecule: Cc1cc2nc(NC(=O)CN3CCN(CCN4C(=O)c5cccc6cccc(c56)C4=O)CC3)sc2cc1C
Result: no

Problem: Same thing, different molecule: C=CC(=O)Nc1cccc(-c2nc(SC)nc(Nc3ccccc3OC)c2C#N)c1
Result: no

Problem: Same thing, different molecule: Cn1c(O)c(N=NC(=O)c2cc(-c3ccccc3)on2)c2ccccc21
Result: no

Problem: Same thing, different molecule: Nc1ccc(-c2cc3c(Nc4ccc(Oc5cccc(C(F)(F)F)c5)c(Cl)c4)ncnc3s2)cc1
Result: no

Problem: Same thing, different molecule: CCCOc1cc2ccccc2cc1C(=O)Nc1nc(NC)c2c(ccc3nccc32)[nH]1
Result: yes

###

# System: SW-620 colon
# assay overview: NCI-60 one-dose screen, 48 h
# experimental parameters: 10 µM unless noted
About 83,000 compounds went through this panel and 20% of them were active in at least one assay; those are over-represented in the sample as a whole. The source made the active and inactive calls. The calls were made as follows: active = growth percent below 10; inactive = the rest.
Field 'call' accepts 1 (active), -1 (inactive)

Worked set:
1. CC1=NN(c2nc(-c3ccc(Cl)cc3)c(C#N)c(N3CCOCC3)n2)C(=O)C1 = -1
2. COc1ccc(-n2nc(C)c3c(Oc4ccc(NC(=O)Nc5c(Cl)cccc5Cl)cc4)ncnc32)cc1 = -1
3. O=C(CCl)Oc1ccc(-c2ccccc2)c(Br)c1 = -1
4. CC1CCNC(C)C1 (stereo unspecified) = -1
5. COc1cc2nc(N3CCCC3)nc(NCCc3ccccc3)c2cc1OC = 1

Problem: Hello, I am checking results. What call was entered for C#Cc1cccc(NC(=O)c2ccccc2NC(=O)C=C)c1 ?
Result: -1

###

# Tested on: COLO 205 colon
# assay overview: NCI-60 one-dose screen, 48 h
# experimental parameters: 10 µM unless noted
# Protocol: Cells are grown in 96 well plates and exposed to the test compound for 48 hours. Compounds are tested at a single concentration, which is 10^-5 M for most compounds. The reported endpoint is percent growth (GI% or GIPRCNT), where numbers from 0 - 100% represent growth inhibition, and numbers from -100% - 0 represent cell death. For example, a value of 40 represents 60% growth inhibition. A value of 0 means no net growth occurred over the course of the experiment. […]
About 83,000 compounds went through this panel and 20% of them were active in at least one assay; those are over-represented in the sample as a whole. The source made the active and inactive calls. The calls were made as follows: active = growth percent below 10; inactive = the rest.
Field 'call' accepts 1 (yes) for active, 0 (no) for inactive

Worked set:
1) CNc1ccc(-c2cc(=O)oc3ccc(Cl)cc23)cc1 = 1 (yes)
2) CCNc1ncnc2c1cnn2C1CCCO1 (stereo not given) = 0 (no)
3) O=C(O)COc1ccc(Cl)cc1C1CCCCC1 = 0 (no)
4) COc1cc(/C=C/C(=O)c2c(C)oc3nc[nH]c(=O)c23)cc(OC)c1OC = 0 (no)
5) O=C1c2cccc3cccc(c23)C(=O)N1CCCCCN1CCN(CCCCCOc2ccc(-c3nc4ccc(N5CCOCC5)cc4[nH]3)cc2)CC1 = 0 (no)
6) CCCc1cc(=O)n2c(C(=O)Nc3ccc(F)cc3)c(C(=O)Nc3ccc(F)cc3)sc2n1 = 0 (no)
7) Nc1n[nH]c2ccc([C@@H]3Nc4ccc5[nH]ncc5c4[C@H]4C5C=CC(C5)[C@@H]34)cc12 (stereo not given in full) = 1 (yes)
8) CCCCN(CCCC)CCCn1c(-c2ccccc2)ccc1-c1ccccc1 = 0 (no)
9) CN(C)S(=O)(=O)c1cccc(-c2nc3sc4c(c3c(=O)[nH]2)CCCC4)c1 = 0 (no)
10) COc1cccc(Nc2nc(SC)nc(-c3cccc([N+](=O)[O-])c3)c2C#N)c1 = 0 (no)

Problem: Hello, I am checking results. What call was entered for O=C1NC(=Nc2ccc(O)cc2)S/C1=C\c1cccc(Cl)c1 ?
Result: 0 (no)

Problem: Same thing, different molecule: CCCCC/C(C=C(C#N)C#N)=C/c1ccccc1
Result: 0 (no)

Problem: Same thing, different molecule: COc1ccc2c(c1)O/C(=C\c1cccc(OCC(=O)Nc3nc4c(s3)CCCC4)c1)C2=O
Result: 0 (no)

Problem: Same thing, different molecule: CCN=C1C=CC(=C(c2ccc(N)cc2)c2ccc(N(CC)CC)c(C)c2)C=C1
Result: 1 (yes)

Problem: Same thing, different molecule: CC(C)(C)CC(C)(C)c1ccc(OCCOCC[N+](C)(C)Cc2ccccc2)cc1
Result: 1 (yes)

Problem: Same thing, different molecule: COc1cccc2c1C(=O)c1c(O)c3c(c(O)c1C2=O)C[C@](O)(C(=O)CO)C[C@H]3O[C@@H]1C[C@@H](NC(=O)CCCN(C)C2(c3ccc(F)cc3)CC3CCC2C3)[C@H](O)[C@@H](C)O1 (stereo not given in full)
Result: 1 (yes)

Problem: Same thing, different molecule: Cc1oc(-c2ccc(Cl)cc2Cl)cc1C(=O)Nc1nccs1
Result: 0 (no)

Problem: Same thing, different molecule: Cc1cc2c3ccccc3ccc2[n+]2ccccc12
Result: 0 (no)

Problem: Same thing, different molecule: O=C1/C(=C/c2ccc(OCCCOc3ccc(Cl)cc3)cc2)N=C2SCCCN12
Result: 0 (no)

Problem: Same thing, different molecule: O=c1c(F)cn(Cc2ccccc2CCl)c(=O)n1Cc1ccccc1CCl
Result: 1 (yes)
